Assay system: Tyrosine-protein kinase ABL1 (Homo sapiens) + Ras and Rab interactor 1 (Homo sapiens) (UniProt P00519+Q13671)
Sequence (P00519 whole entry, looked up): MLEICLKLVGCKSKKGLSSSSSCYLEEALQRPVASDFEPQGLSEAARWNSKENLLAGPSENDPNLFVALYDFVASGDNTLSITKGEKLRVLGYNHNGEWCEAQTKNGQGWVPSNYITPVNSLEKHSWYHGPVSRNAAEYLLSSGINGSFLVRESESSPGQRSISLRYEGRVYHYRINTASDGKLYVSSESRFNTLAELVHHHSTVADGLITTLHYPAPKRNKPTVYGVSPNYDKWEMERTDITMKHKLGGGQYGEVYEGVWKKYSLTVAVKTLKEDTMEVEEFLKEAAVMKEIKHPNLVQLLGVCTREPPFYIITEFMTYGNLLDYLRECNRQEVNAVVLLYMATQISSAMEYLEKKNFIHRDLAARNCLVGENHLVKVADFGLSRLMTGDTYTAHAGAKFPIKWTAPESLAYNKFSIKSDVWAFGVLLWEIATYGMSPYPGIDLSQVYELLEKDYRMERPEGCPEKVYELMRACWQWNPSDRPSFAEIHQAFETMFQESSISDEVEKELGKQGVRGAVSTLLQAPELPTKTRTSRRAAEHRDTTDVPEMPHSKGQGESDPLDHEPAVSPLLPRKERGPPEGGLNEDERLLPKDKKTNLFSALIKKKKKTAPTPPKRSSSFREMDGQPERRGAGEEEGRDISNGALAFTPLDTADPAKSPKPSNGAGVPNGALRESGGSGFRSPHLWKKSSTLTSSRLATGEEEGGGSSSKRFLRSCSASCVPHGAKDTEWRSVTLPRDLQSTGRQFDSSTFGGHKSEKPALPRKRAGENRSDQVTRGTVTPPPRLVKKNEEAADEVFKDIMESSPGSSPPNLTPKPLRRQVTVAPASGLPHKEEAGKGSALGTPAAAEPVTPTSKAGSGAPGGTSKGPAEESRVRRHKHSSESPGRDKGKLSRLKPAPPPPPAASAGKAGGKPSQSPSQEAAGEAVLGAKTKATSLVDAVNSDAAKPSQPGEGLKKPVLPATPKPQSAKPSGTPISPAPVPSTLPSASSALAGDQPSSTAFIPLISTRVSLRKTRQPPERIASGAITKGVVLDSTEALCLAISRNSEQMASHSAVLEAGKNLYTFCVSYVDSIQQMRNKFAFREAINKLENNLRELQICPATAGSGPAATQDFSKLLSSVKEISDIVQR
Sequence (Q13671 whole entry, looked up): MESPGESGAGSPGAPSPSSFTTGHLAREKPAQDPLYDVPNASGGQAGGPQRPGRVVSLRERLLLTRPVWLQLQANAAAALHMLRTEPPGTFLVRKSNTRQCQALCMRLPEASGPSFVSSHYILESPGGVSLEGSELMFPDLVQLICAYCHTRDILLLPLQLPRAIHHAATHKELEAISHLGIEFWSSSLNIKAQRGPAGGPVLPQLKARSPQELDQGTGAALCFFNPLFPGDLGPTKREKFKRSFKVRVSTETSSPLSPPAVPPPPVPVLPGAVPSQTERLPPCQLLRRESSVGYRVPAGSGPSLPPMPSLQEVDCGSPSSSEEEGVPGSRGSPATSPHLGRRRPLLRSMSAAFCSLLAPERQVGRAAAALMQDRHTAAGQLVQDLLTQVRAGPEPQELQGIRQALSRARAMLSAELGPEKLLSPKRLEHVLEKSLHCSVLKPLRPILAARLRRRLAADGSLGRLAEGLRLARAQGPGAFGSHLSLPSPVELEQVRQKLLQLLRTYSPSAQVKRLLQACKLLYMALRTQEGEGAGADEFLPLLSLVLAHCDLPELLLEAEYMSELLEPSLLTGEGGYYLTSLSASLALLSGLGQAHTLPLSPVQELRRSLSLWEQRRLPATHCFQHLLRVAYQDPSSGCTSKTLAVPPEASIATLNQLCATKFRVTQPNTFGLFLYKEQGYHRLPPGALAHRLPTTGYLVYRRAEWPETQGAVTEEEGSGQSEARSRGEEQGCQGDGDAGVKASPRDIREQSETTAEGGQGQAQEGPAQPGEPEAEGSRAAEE
Assay overview: inhibitors of Rin1-Abl protein interaction, late-stage follow-up, biochemical, TR-FRET, round 2 (AID 686966)
Assay conditions: TR-FRET Rin1-Abl binding
Activity calls are given as the source filed them. The rule behind the calls is not given here.
Measured quantity: IC50

Example entries and their recorded answers appear below.
Smiles text	Observed measurement
O=c1cc(OCc2ccccc2)cc[nH]1	23.1 nM
O=c1cc(OCc2ccc(F)cc2)cc[nH]1	19.4 nM
Nc1cc(OCc2ccccc2)ccn1	> 73500 nM (inactive)
Cn1ccc(OCc2ccc(F)cc2)cc1=O	inactive
COc1ccc(COc2ccnc(OC)c2)cc1	> 73500 nM (inactive)

Provide IC50 for all items below, preserving their order.
1. COc1cc(OCc2ccc(F)cc2)ccn1
2. COc1ccc(COc2cc[nH]c(=O)c2)cc1
3. COc1cc(OCc2ccccc2)ccn1
4. Cn1ccc(OCc2ccccc2)cc1=O
5. COc1ccc(COc2ccn(C)c(=O)c2)cc1

Marked response:
1: inactive; 2: 39.8 nM; 3: > 73500 nM (inactive); 4: > 73500 nM (inactive); 5: > 73500 nM (inactive)
